src = patent US11319324B2

Form field: IC50 (one value per entry).
- TARGET_ENTITY: human P2X3 receptor (Homo sapiens)
- Sequence (P56373 1-397): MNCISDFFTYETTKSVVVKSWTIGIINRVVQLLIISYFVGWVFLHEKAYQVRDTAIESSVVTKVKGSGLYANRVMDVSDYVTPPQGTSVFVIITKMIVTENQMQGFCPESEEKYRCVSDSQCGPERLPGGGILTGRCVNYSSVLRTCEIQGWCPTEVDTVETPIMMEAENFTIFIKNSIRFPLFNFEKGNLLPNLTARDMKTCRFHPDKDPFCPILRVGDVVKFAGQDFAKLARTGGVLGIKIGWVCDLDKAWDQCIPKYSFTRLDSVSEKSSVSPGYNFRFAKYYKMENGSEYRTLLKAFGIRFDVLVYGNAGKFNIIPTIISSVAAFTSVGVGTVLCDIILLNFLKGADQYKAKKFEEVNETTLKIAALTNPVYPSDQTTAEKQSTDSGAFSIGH
- METHOD: Intracellular calcium measurement to assess antagonist activity at human P2X3 receptors (hP2X3 CHO), photina luminescence
- Type: cell-based
- Set-up: expressed in transfected cells; host or cells: Chinese hamster ovary (CHO) cells
- REPORTED_CONDITIONS: column 2), CHO cells, agonist α,β-methylene-ATP at EC50
MEASURED_METRIC: IC50

{"MOLECULE": "CCc1cc2n(CC(=O)Nc3ccc(F)cn3)c3c(c(=O)n2n1)CN(C1CN(C(C)=O)C1)C3=O", "TARGET_ENTITY": "human P2X3 receptor (Homo sapiens)", "MEASURED_METRIC": "IC50", "RESULT": "1500 nM"}
{"MOLECULE": "CCc1cc2n(CC(=O)Nc3ccc(F)cn3)c3c(c(=O)n2n1)CN(C(C)(C)CO)C3=O", "TARGET_ENTITY": "human P2X3 receptor (Homo sapiens)", "MEASURED_METRIC": "IC50", "RESULT": "56 nM"}
{"MOLECULE": "CC(C)N1Cc2c(n(CC(=O)Nc3ccccn3)c3cc(C(C)(C)C)nn3c2=O)C1=O", "TARGET_ENTITY": "human P2X3 receptor (Homo sapiens)", "MEASURED_METRIC": "IC50", "RESULT": "135 nM"}
{"MOLECULE": "COC[C@H](C)N1Cc2c(n(CC(=O)Nc3ccc(F)cn3)c3cc(N(C)C)nn3c2=O)C1=O", "TARGET_ENTITY": "human P2X3 receptor (Homo sapiens)", "MEASURED_METRIC": "IC50", "RESULT": "30 nM"}
{"MOLECULE": "CC(C)N1Cc2c(n(CC(=O)Nc3ccc(F)cn3)c3cc(C(C)(C)C)nn3c2=O)C1=O", "TARGET_ENTITY": "human P2X3 receptor (Homo sapiens)", "MEASURED_METRIC": "IC50", "RESULT": "35 nM"}
{"MOLECULE": "CN(C)CCN1Cc2c(n(CC(=O)Nc3ccc(F)cn3)c3cc(C(C)(C)C)nn3c2=O)C1=O", "TARGET_ENTITY": "human P2X3 receptor (Homo sapiens)", "MEASURED_METRIC": "IC50", "RESULT": "420 nM"}
{"MOLECULE": "COCC(C)N1Cc2c(n(CC(=O)Nc3ccc(F)cn3)c3cc(Br)nn3c2=O)C1=O (stereo not drawn)", "TARGET_ENTITY": "human P2X3 receptor (Homo sapiens)", "MEASURED_METRIC": "IC50", "RESULT": "44 nM"}
{"MOLECULE": "CC(C)N1Cc2c(n(CC(=O)Nc3ccc(F)cn3)c3cc(C4CCNCC4)nn3c2=O)C1=O.Cl", "TARGET_ENTITY": "human P2X3 receptor (Homo sapiens)", "MEASURED_METRIC": "IC50", "RESULT": "125 nM"}
{"MOLECULE": "COC[C@H](C)N1Cc2c(n(CC(=O)Nc3ccc(F)cn3)c3cc(C(C)(C)C)nn3c2=O)C1=O", "TARGET_ENTITY": "human P2X3 receptor (Homo sapiens)", "MEASURED_METRIC": "IC50", "RESULT": "20 nM"}
{"MOLECULE": "COC[C@H](C)N1Cc2c(n(CC(=O)Nc3ccc(F)cn3)c3cc(C(C)C)nn3c2=O)C1=O", "TARGET_ENTITY": "human P2X3 receptor (Homo sapiens)", "MEASURED_METRIC": "IC50", "RESULT": "29 nM"}
{"MOLECULE": "COC[C@@H](C)N1Cc2c(n(CC(=O)Nc3ccc(F)cn3)c3cc(C(C)(C)C)nn3c2=O)C1=O", "TARGET_ENTITY": "human P2X3 receptor (Homo sapiens)", "MEASURED_METRIC": "IC50", "RESULT": "20 nM"}
{"MOLECULE": "CC(C)N1Cc2c(n(CC(=O)Nc3ccc(F)cn3)c3cc(C4CCN(C)CC4)nn3c2=O)C1=O", "TARGET_ENTITY": "human P2X3 receptor (Homo sapiens)", "MEASURED_METRIC": "IC50", "RESULT": "235 nM"}
{"MOLECULE": "CCc1cc2n(CC(=O)Nc3ccc(F)cn3)c3c(c(=O)n2n1)CN(CC1CCC1)C3=O", "TARGET_ENTITY": "human P2X3 receptor (Homo sapiens)", "MEASURED_METRIC": "IC50", "RESULT": "113 nM"}
{"MOLECULE": "COC[C@H](C)N1Cc2c(n(CC(=O)Nc3ccc(F)cn3)c3cc(C(=O)NCC(F)F)nn3c2=O)C1=O", "TARGET_ENTITY": "human P2X3 receptor (Homo sapiens)", "MEASURED_METRIC": "IC50", "RESULT": "19 nM"}
{"MOLECULE": "CCc1cc2n(CC(=O)Nc3ccc(F)cn3)c3c(c(=O)n2n1)CN(C[C@H]1CN(C)CCO1)C3=O", "TARGET_ENTITY": "human P2X3 receptor (Homo sapiens)", "MEASURED_METRIC": "IC50", "RESULT": "400 nM"}
